# Test details: clinical
# Experimental conditions: both, human, in vivo
Property measured: Cmax (ng/mL)
Field format: number, assumed ng/mL, no unit text.

# get_value(readout='Cmax', item= C=CCN1CC[C@]23c4c5ccc(O)c4O[C@H]2C(=O)CC[C@@]3(O)[C@H]1C5 [NAL, naloxone] )
0.139

###

# Test details: clinical
# Experimental conditions: human, in vivo
Property measured: AUC(0-t) (nM·h)
Field format: number, assumed nM·h, no unit text.

# get_value(readout='AUC(0-t)', item= C=C[C@@H]1C[C@]1(NC(=O)[C@@H]1C[C@@H]2CN1C(=O)[C@H](C(C)(C)C)NC(=O)O[C@@H]1C[C@H]1CCCCCc1nc3ccc(OC)cc3nc1O2)C(=O)NS(=O)(=O)C1CC1 [GZR, grazoprevir] )
2130

###

# Test details: clinical
# Experimental conditions: both, human, in vivo
Property measured: AUC(0-inf) (ng·h/mL)
Field format: number, assumed ng·h/mL, no unit text.

# get_value(readout='AUC(0-inf)', item= "C=CCN1CC[C@]23c4c5ccc(O)c4O[C@H]2C(=O)CC[C@@]3(O)[C@H]1C5" )
0.416

###

# Test details: clinical
# Experimental conditions: both, human, in vivo, po, 50 mg
Property measured: AUC(0-inf)
Answer format: number, then unit.

# get_value(readout='AUC(0-inf)', item= COC(=O)N[C@H](C(=O)N1CCC[C@H]1c1nc(-c2ccc3c(c2)O[C@@H](c2ccccc2)n2c-3cc3cc(-c4c[nH]c([C@@H]5CCCN5C(=O)[C@@H](NC(=O)OC)C(C)C)n4)ccc32)c[nH]1)C(C)C [EBR, elbasvir] )
2.08 µM·h

###

# Test details: clinical
# Experimental conditions: both, human, in vivo, 2 mg
Property measured: AUC(0-inf) (ng·h/mL)
Field format: number, assumed ng·h/mL, no unit text.

# get_value(readout='AUC(0-inf)', item= "C=CCN1CC[C@]23c4c5ccc(O)c4O[C@H]2C(=O)CC[C@@]3(O)[C@H]1C5" )
0.47

###

Listed here: items and their measured Tmax.
# Test details: clinical
# Experimental conditions: both, human, in vivo
Field format: number, assumed h, no unit text.

Molecule | Readout units | Tmax
COC(=O)N[C@H](C(=O)N1CCC[C@H]1c1nc(-c2ccc3c(c2)O[C@@H](c2ccccc2)n2c-3cc3cc(-c4c[nH]c([C@@H]5CCCN5C(=O)[C@@H](NC(=O)OC)C(C)C)n4)ccc32)c[nH]1)C(C)C | h | 3.01

# get_value(readout='Tmax', item= "C=CCN1CC[C@]23c4c5ccc(O)c4O[C@H]2C(=O)CC[C@@]3(O)[C@H]1C5" )
0.98

###

# Test details: clinical
# Experimental conditions: human, in vivo
Property measured: Tmax (h)
Field format: number, assumed h, no unit text.

Molecule | Tmax, h
C=CCN1CC[C@]23c4c5ccc(O)c4O[C@H]2C(=O)CC[C@@]3(O)[C@H]1C5 [NAL, naloxone] | 1.24

# get_value(readout='Tmax', item= C=C[C@@H]1C[C@]1(NC(=O)[C@@H]1C[C@@H]2CN1C(=O)[C@H](C(C)(C)C)NC(=O)O[C@@H]1C[C@H]1CCCCCc1nc3ccc(OC)cc3nc1O2)C(=O)NS(=O)(=O)C1CC1 [GZR, grazoprevir] )
4

###

# Test details: clinical
# Experimental conditions: both, human, in vivo, 2 mg
Property measured: Cmax
Answer format: number, then unit.

# get_value(readout='Cmax', item= "C=CCN1CC[C@]23c4c5ccc(O)c4O[C@H]2C(=O)CC[C@@]3(O)[C@H]1C5" )
0.165 ng/mL
